Items are presented alongside their recorded pIC50.
- Tested on: lung cancer cell lines (e.g. NCI-H23, NCI-H1229)
- method-notes: Cell based assay, cell viability (CellTiter-Glo), lung cancer cell lines
- condition-details: Homo sapiens; NCI-H23 cells; 72 hours treatment; CellTiter-Glo; read-out: IC50, lung cancer cell line NCI-H23
The read-out pIC50 is expressed as -log10 of concentration in moles per litre.

Example results:
- molecule: "CC(=O)c1c([S+](C)[O-])[nH]c2c(Cl)ccc(Cl)c2c1=O (centres unmarked)"
  value: 5.88
- molecule: "COc1cccc2[nH]c([S+]([O-])Cc3cc(C)on3)c(C(C)=O)c(=O)c12 (centres unmarked)"
  value: 5.68

Returns the measured pIC50 for the input molecule. Input: CC(=O)c1c([S+](C)[O-])n(S(=O)(=O)c2ccc(C(C)(C)C)cc2)c2c(Br)ccc(Cl)c2c1=O (centres unmarked)
5.74

Need pIC50 of CC(=O)c1c([S+]([O-])Cc2ccc(SC(F)(F)F)cc2)[nH]c2c(Br)ccc(Cl)c2c1=O (centres unmarked) , thanks.
5.98

Any idea what pIC50 was measured for CC(=O)c1c([S+]([O-])Cc2ccc(F)cc2F)[nH]c2c(Br)ccc(Cl)c2c1=O (centres unmarked) ?
6.04
